# Method Summary: amyloid nucleation score (Sup35N fusion, yeast selection) (log enrichment); library NNK3; higher = more nucleation; inactive = no reads after selection;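 note: zero at mode of non-aggregating sequences after 7 days selection at 30°C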
Attribute Measured: amyloid nucleation score

> print(dat)
              substance  reported.measurement
1  TIAVLMLIDCGSRGPFRHLT              inactive
2             INTVLLGYS              inactive
3  SLGLNTPAREFYWGCILTFG              inactive
4  RQISLYFSFNRFSMYFTLNL              inactive
5            SVNTLLALRV              inactive
6  HYMRMQTSLANRYIARNVAR              inactive
7             NRIMGVGLY              inactive
8                VLWDGF              inactive

input: Any idea what amyloid nucleation score was measured for "SNGVRSRLLE" ?
output: inactive

input: Suppose we examine the substance "GYQDAFIP" ; what amyloid nucleation score value has been reported?
output: inactive

input: Consider the substance "GNFSRLDSCFTVVRARVKCN" and give its measured amyloid nucleation score.
output: inactive

input: Item under review: "DVMRVWFTEYSMSTTVGMAV" . Reported amyloid nucleation score?
output: inactive

input: Record request: amyloid nucleation score value, item "SRHRNYHFCRILQCGFERSW"
output: -0.526

input: Fill blank: measured amyloid nucleation score of the substance "RLPRRSEDIKALRMDIRLYR" is ____.
output: inactive

input: Can you share its amyloid nucleation score? I mean this substance: "SVNHKFVSDCIFGRATMEVR"
output: -0.263

input: Which amyloid nucleation score value belongs to "RGFNYKMLFSSDLD" ?
output: inactive

input: Fill in the blank: the reported amyloid nucleation score of "FSFTRNERIDSLCSNAHSFT" is ____.
output: inactive

====

# Method Summary: amyloid nucleation score (Sup35N fusion, yeast selection) (log enrichment); library NNK1; higher = more nucleation; inactive = no reads after selection
Consider the following substances and their measured amyloid nucleation score readings.
Give only the figure.

> print(dat)
              substance        attribute.measured  reported.measurement
1  LYCFIMDFLLGFKHCMCKGV  amyloid nucleation score                  1.55
2             NNLFYEIRM  amyloid nucleation score                  1.92
3             EHSPRRGAL  amyloid nucleation score                 0.063
4             MYYSIGWKR  amyloid nucleation score                  1.48
5        MWLFYRWVRSCTCP  amyloid nucleation score                -0.042
6  LGLFCESYDEADCRTEDSAC  amyloid nucleation score                 0.254
7  SDYTLEGLIVFPCCVLLHVR  amyloid nucleation score                 0.381
8       WFSAASGIMKEFSVG  amyloid nucleation score                -0.277

input: Entry "DRLMFRYSIRRIRFVSESSP" has what amyloid nucleation score?
output: 1.41

input: Looking for the measured amyloid nucleation score of "GNFGWHSLSYRDNYICSWAL" , can you help?
output: 4.43

input: For the substance "VACNIGHSYVNYYCRGIILC" , what amyloid nucleation score is on record?
output: 0.586

input: Need amyloid nucleation score, item "TWNVMYRIRF"
output: 2.04

input: Given "VGLVLKIHVYNYFMETAQQS" , state its recorded amyloid nucleation score.
output: 6.55

input: I'd like to know its amyloid nucleation score. The substance in question is "QIIHGCSAGLQLT"
output: 0.809

input: Field request: amyloid nucleation score | item: "GCQLLYAKHIQSIMSQRPKN"
output: 0.374

input: What value of amyloid nucleation score has been recorded for this entry: "TLVKLVVTIGLDIKDCGFVI"
output: 0.018

input: GET /values?readout=amyloid nucleation score&item= "YRMSRLFTVVGAPVGSSLNF"
output: -1.58

# credit: the supplement of paper PMC12042874
